The reported measurements were obtained from patent US20250027068.

Molecular target: pooled human IgG (human IgG1,2,3 and 4)
endpoint: Enzyme activity endpoint: IgG

| protein | experimentalResult |
| --- | --- |
| PRT-557 (protein) MANQEIRYSEEDGKTITSVWTKGVTPPTDFQKNEDVYHAPYVANQGWYDITKTFNGKDDLLCGAATAGNMLHWWFDQNKEEIERYLKKHPEKQKINFNGEQMFDVKEAIDTKDSQTDSALFEYFKDKAFPYLSTKHLGVFPDHVIDMFINGYRLSLTNHGPTPVKDGTKDPRGGIFDAVFTRGDQTKLLTERHDFKEKTLNEISDLIKQELQEGKALGLSHTYANVRINHVINLWGADFDSEGNLEAIYVTDSDSNASIGMKKYYVGVNSAGKVAISAKEIEDDNIGAQVLGLFTLSTGKDIWEQTNLEHHHHHH | 0 ng/µL |
